Attribution: the Biogen ADME set (Fang et al. 2023)

Overview of recorded intrinsic clearance, rat liver microsomes for various molecules
assay_endpoint: intrinsic clearance, rat liver microsomes

# smiles_data, result
data = [
    ("Fc1cncc(-c2cnc(NCc3ccc(Cl)c(F)c3)nc2)c1", "104 mL/min/kg"),
    ("O=C(CCN1CCN(C(=O)OCc2cc(Cl)cc(Cl)c2)CC1)c1ccc2[nH]c(=O)oc2c1", "513 mL/min/kg"),
    ("COc1ccc(CN(C)c2ncncc2Br)cc1O", "211 mL/min/kg"),
    ("COc1ccc2cc(C(=O)NCc3nnc4n3CCCCC4)ccc2c1", "655 mL/min/kg"),
    ("COc1ccc(-c2nc(CN3CCC[C@H](O)C3)no2)cc1", "48 mL/min/kg"),
    ("CCCN1CCCN(C(=O)c2nc3ccccc3[nH]2)CC1", "169 mL/min/kg"),
]
